# test system: Kv1.2 (Homo sapiens)
# Construct: expressed in transfected cells
# method summary: Patch clamp assay (QPatch), Kv1.2
# Format: cell-based
# assay setup: ratio of IC50 Kv1.2/Kv1.3
Quick reference for Selectivity Kv1.2/Kv1.3 among some substances

Sample answers from the record:
[[record]]
substance = "H-N[Nle]D[Nle]RC(1)SASVEC(2)KQKC(3)LKAIGSIFGKC(1)[Nle]NKKC(2)KC(3)YPR-NH2 [Peptide 41]"
test_system = "Kv1.2 (Homo sapiens)"
measured = 436

[[record]]
substance = "H-NMDMRC(1)SASVEC(2)KQKC(3)LKAIGSIFGKC(1)[Nle]NKKC(2)KC(3)YPR-NH2 [Peptide 17]"
test_system = "Kv1.2 (Homo sapiens)"
measured = 561

[[record]]
substance = "H-NMDMRC(1)SASVEC(2)KQKC(3)LKAIGSIFGKC(1)MNKKC(2)KC(3)YPR-OH [Peptide 3]"
test_system = "Kv1.2 (Homo sapiens)"
measured = 1540


Field: next substance
Ac-SKC(1)SASVEC(2)KQKC(3)LKAIGSIFGKC(1)[Nle]NKKC(2)KC(3)YPR-NH2 [Peptide 113] has a reported Selectivity Kv1.2/Kv1.3 of 196

* * *

# test system: Kv1.2 (Homo sapiens, UniProt P16389)
# Construct: expressed in transfected cells
# Sequence (P16389 whole entry): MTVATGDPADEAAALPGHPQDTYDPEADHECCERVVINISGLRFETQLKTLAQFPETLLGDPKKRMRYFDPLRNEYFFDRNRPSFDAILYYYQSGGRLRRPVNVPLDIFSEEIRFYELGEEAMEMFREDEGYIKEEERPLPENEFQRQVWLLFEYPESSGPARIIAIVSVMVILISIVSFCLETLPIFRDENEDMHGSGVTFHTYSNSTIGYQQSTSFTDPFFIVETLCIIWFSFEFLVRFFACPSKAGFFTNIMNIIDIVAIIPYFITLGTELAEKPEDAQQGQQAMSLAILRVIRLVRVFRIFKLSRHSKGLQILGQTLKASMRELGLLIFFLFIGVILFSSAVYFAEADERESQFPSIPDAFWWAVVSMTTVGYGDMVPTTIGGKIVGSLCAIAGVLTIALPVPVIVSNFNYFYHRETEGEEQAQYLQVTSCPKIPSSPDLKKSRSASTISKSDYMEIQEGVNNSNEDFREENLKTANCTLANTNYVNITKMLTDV
# method summary: Patch clamp assay (QPatch), Kv1.2
# Assay type: cell-based
# assay setup: ratio of IC50 Kv1.2/Kv1.3
Quick reference for Selectivity Kv1.2/Kv1.3 among some substances

Sample answers from the record:
[[record]]
substance = "H-NMDMRC(1)SASVEC(2)AQKC(3)LKAIGSIFGKC(1)MNKKC(2)KC(3)YPR-NH2 [Peptide 31]"
measured = 4897

[[record]]
substance = "H-C(1)SASVEC(2)KQKC(3)LKAIGSIFGKC(1)[Nle]NKKC(2)KC(3)YPR-NH2 [Peptide 108]"
measured = ">7000"

[[record]]
substance = "H-NMDMRC(1)SASVEC(2)KQKC(3)LKAYGSIFGKC(1)MNKKC(2)KC(3)YPR-NH2 [Peptide 59]"
measured = 426


H-INVKCSLPQQCIKPCKDAGMRFGKCMNKKCRCYS-OH [Moka1, reference compound] has a reported Selectivity Kv1.2/Kv1.3 of 31

H-S[Nle]D[Nle]RC(1)SASVEC(2)AQSC(3)LKAIGSIFGKC(1)MNKKC(2)KC(3)YPR-NH2 [Peptide 81] has a reported Selectivity Kv1.2/Kv1.3 of 5596

H-PIE[Nle]RC(1)SASVEC(2)KQKC(3)LAAIGSIFGKC(1)[Nle]NKKC(2)KC(3)YPR-OH [Peptide 105] has a reported Selectivity Kv1.2/Kv1.3 of 5630

* * *

# test system: Kv1.2 (Homo sapiens)
# Construct: expressed in transfected cells
# method summary: Patch clamp assay (QPatch), Kv1.2
# Format: cell-based
# assay setup: ratio of IC50 Kv1.2/Kv1.3
experimental endpoint: Selectivity Kv1.2/Kv1.3
// response body must contain only the number

[[record]]
substance = "H-N[Nle]S[Nle]RC(1)SASVEC(2)KQKC(3)LKAIGSIFGKC(1)[Nle]NKKC(2)KC(3)YPR-NH2 [Peptide 47]"
measured = 943

[[record]]
substance = "H-P[Nle]E[Nle]RC(1)SASVEC(2)KQKC(3)LAAIGSIFGKC(1)[Nle]NKKC(2)KC(3)YPR-OH [Peptide 100]"
measured = 3384

[[record]]
substance = "H-P[Nle]E[Nle]RC(1)SASVEC(2)AQKC(3)LAAIGSIFGKC(1)[Nle]NKKC(2)KC(3)YPR-OH [Peptide 107]"
measured = 5500

[[record]]
substance = "H-NMEMRC(1)SASVEC(2)KQKC(3)LKAIGSIFGKC(1)MNKKC(2)KC(3)YPR-OH [Peptide 13]"
measured = 2093

[[record]]
substance = "H-AAAISCVGSPECPPKCRAQGCKNGKCMNRKCKCYYC-NH2 [Vm24, reference compound]"
measured = 31


H-QMDMRC(1)SASVEC(2)KQKC(3)LKAIGSIFGKC(1)MNKKC(2)KC(3)YPR-OH [Peptide 1] has a reported Selectivity Kv1.2/Kv1.3 of 1364

H-NMDMRC(1)SASVEC(2)KQKC(3)LKAIGSKFGKC(1)MNKKC(2)KC(3)YPR-NH2 [Peptide 35] has a reported Selectivity Kv1.2/Kv1.3 of 237

H-N[Nle]D[Nle]RC(1)SASVEC(2)KKKC(3)LKAIGSIFGKC(1)[Nle]NKKC(2)KC(3)YPR-NH2 [Peptide 46] has a reported Selectivity Kv1.2/Kv1.3 of 343

H-NMDMRC(1)SASVEC(2)KQKC(3)LKAIGSRFGKC(1)MNKKC(2)KC(3)YPR-NH2 [Peptide 36] has a reported Selectivity Kv1.2/Kv1.3 of 88

H-NMDMRC(1)SASVEC(2)KQKC(3)LKAIRSIFGKC(1)MNKKC(2)KC(3)YPR-NH2 [Peptide 22] has a reported Selectivity Kv1.2/Kv1.3 of 259
